Some compounds, each annotated with its measured growth inhibition.
- assay-comment: NCI Yeast Anticancer Drug Screen. Data for the mlh1 rad18 strain (AID 175)
- conditions: S. cerevisiae mlh1 rad18 strain growth inhibition; at 50.0 µM; active compounds read high
This is part of a sample that, as a whole, favours compounds with a hit. Of some 79,000 tested, about 15% had one in any assay.
Give your result in % as a bare value.

| compound | meas-value |
| --- | --- |
| O=C(c1ccccc1)C(c1ccccc1)N(CCO)CCO (configuration not stated) | -17.3 |
| CCN(CCO)C(=O)C1(c2ccccc2)CCCCC1 | -1.4 |
| CC(C)Cn1cnc2c(SCc3ccccn3)nc(N)nc21 | -17.4 |
| CC(C)N(C(=O)C12C3C4C5C3C1(C(=O)N(C(C)C)C(C)C)C5(C#N)C42)C(C)C (configuration not stated) | 4.2 |
| CN(C)c1nc(N)c2ccc(Cl)cc2n1 | 8.7 |
| CC/C=C/CC(=O)NCc1ccc(O)c(OC)c1 | -16.7 |

Next compound, growth inhibition to be filled in.
Using the record for COc1cc(C(=O)O)cc(OC(C)=O)c1OC , report its growth inhibition.
20.7

====

- assay-comment: NCI Yeast Anticancer Drug Screen. Data for the mlh1 rad18 strain (AID 175)
- conditions: S. cerevisiae mlh1 rad18 strain growth inhibition; at 50.0 µM; active compounds read high
This is part of a sample that, as a whole, favours compounds with a hit. Of some 79,000 tested, about 15% had one in any assay.
Some molecules, each annotated with its measured growth inhibition.
Give your result in % as a bare value.

Worked set:
| molecule | growth inhibition / % |
| --- | --- |
| O=c1cnn(C2OC(C(O)CO)C(O)C2O)c(=O)[nH]1 (stereo unspecified) | -18.4 |
| CC1(C(Cl)(Cl)Cl)C=C/C(=N\O)C(Cl)=C1 (stereo unspecified) | -7.75 |
| c1ccc(CCc2nc3ccccc3[nH]2)cc1 | -10.9 |
| CC(C)NC(=O)OCc1nnn2c1CCC2 | -4.05 |
| CCN(CC)CC#CCOc1ccc(/C=C/c2ccccn2)cc1 | -21.4 |

Using the record for O/N=C1\CCCC\C1=N/O.O/N=C1\CCCC\C1=N/O.[Pt] , report its growth inhibition.
8.05

====

- assay-comment: NCI Yeast Anticancer Drug Screen. Data for the sgs1 mgt1 strain (AID 161);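 further: 0% = growth of cultures given vehicle only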
- conditions: S. cerevisiae sgs1 mgt1 strain, at 50.0 µM, active compounds read high
About 79,000 compounds went through this panel and 15% of them were active in at least one assay; those are over-represented in the sample as a whole.
Some compounds, each annotated with its measured growth inhibition.
Give your result in % as a bare value.

| compound | growth inhibition, % |
| --- | --- |
| COC(=O)c1ccccc1C1CN=NC12Cc1cc(C)ccc1C2=O (configuration not stated) | -10.4 |
| CC1CCC(C(C)(C)O)CC1O (configuration not stated) | 0.9 |
| O=C(O)CCCCC1CCSS1 (configuration not stated) | 46 |
| O=C(c1ccccc1)c1ccccc1 | -13.2 |

Using the record for O=C(Nc1ccc(Br)cn1)c1sc2ccccc2c1Cl , report its growth inhibition.
26.6

Using the record for Oc1ccc2ccccc2c1C=NCCS , report its growth inhibition.
2.7

Using the record for CNc1ccc([N+](=O)[O-])cn1 , report its growth inhibition.
31.6

Using the record for C/C(=N/NC(=O)c1ccccc1)C(=O)c1ccccc1 , report its growth inhibition.
-2.65

Using the record for CCOC(=O)CCN(CC1CC=CCC1)c1cc(O)c2c(c1O)C(=O)c1ccccc1C2=O (configuration not stated) , report its growth inhibition.
-21.5
